Source listed as ChEMBL document CHEMBL2157972.

Biological target: hERG (KCNH2) (Homo sapiens)
Test: Inhibition of human ERG expressed in mammalian cells at 10 uM by patch clamp method
Format: cell-based
Details: mammalian cells that express hERG
Measurement name: inhibition at 10 µM
Please report the result as a number followed by the unit.

Lookup: For the compound COc1ccc2nccc([C@H](O)CC[C@@H]3CCN(CCSc4ccco4)C[C@@H]3C(=O)O)c2c1 (mixture of isomers) , give its measured inhibition at 10 µM value.
Found: 14%

Lookup: Fill in reported inhibition at 10 µM for this entry: COc1ccc2nccc([C@@H](O)CC[C@@H]3CCN(CCSc4ccco4)C[C@@H]3C(=O)O)c2c1 (mixture of isomers)
Found: 27%
